Each recorded value in this set is attributed to patent US20260217767A1.

# test-method-notes: Simulated Intestinal Fluid (SIF) Stability Assay
# Format: in vitro ADME
# condition: pig, porcine pancreatin, 37° C.; monomers, Table 6
*1 amine or outer side, *2 acyl side, *3 side chain or, on linkers, in order; H or OH if unused. Where a SMILES comes first, the peptide text is derived from it. Bridges are numbered along the chain shown (N, C = ends). [ ]: non-standard residue; d: D form. Phe(3-Me) = Cc1cccc(C[C@H](N)C(=O)O)c1; Phe(4-Me) = Cc1ccc(C[C@H](N)C(=O)O)cc1; Phe(2-Me) = Cc1ccccc1C[C@H](N)C(=O)O; NMeR = CN[C@@H](CCCNC(=N)N)C(=O)O; β3hE = N[C@@H](CCC(=O)O)CC(=O)O; X1 = O=C(c1ccccc1C[*:2])[*:1]; Pen = CC(C)(S)[C@H](N)C(=O)O
observable: half-life

1. CC(C)C[C@@H]1NC(=O)[C@H]([C@@H](C)O)NC(=O)[C@H](CC(=O)O)NC(=O)[C@H](CO)NC(=O)[C@H](CCCNC(=N)N)N(C)C(=O)c2ccccc2CSC(C)(C)[C@@H](C(=O)N[C@@H](Cc2c[nH]c3ccccc23)C(=O)N[C@H](CCC(=O)O)C(=O)N[C@@H](CN)C(N)=O)NC1=O [compound 94] (HELM PEPTIDE1{[meR].S.D.T.L.[Pen].W.[dE].[NC[C@H](N[*:1])C(=O)[*:2]].[am]}|CHEM1{[O=C(c1ccccc1C[*:2])[*:1]]}$PEPTIDE1,CHEM1,1:R1-1:R1|PEPTIDE1,CHEM1,6:R3-1:R2$$$V2.0) :: > 3 h

[in] Give the reported half-life for this compound. CC(C)C[C@@H]1NC(=O)[C@H]([C@@H](C)O)NC(=O)[C@H](CC(=O)O)NC(=O)[C@H](CO)NC(=O)[C@H](CCCNC(=N)N)N(C)C(=O)c2ccccc2CSCC[C@@H](C(=O)N[C@@H](Cc2c[nH]c3ccccc23)C(=O)N[C@@H](CCC(=O)O)C(=O)N[C@H](CCCCN)C(N)=O)NC1=O [compound 67] (HELM PEPTIDE1{[meR].S.D.T.L.[O=C([C@H](CCS[*:3])N[*:1])[*:2]].W.E.[dK].[am]}|CHEM1{[O=C(c1ccccc1C[*:2])[*:1]]}$PEPTIDE1,CHEM1,1:R1-1:R1|PEPTIDE1,CHEM1,6:R3-1:R2$$$V2.0)
[out] < 0.333 h

[in] Give me measured half-life, please, for this compound: Cc1ccc(C[C@H](NC(=O)[C@H]2NC(=O)[C@H](CC(C)C)NC(=O)[C@H]([C@@H](C)O)NC(=O)[C@H](CC(=O)O)NC(=O)[C@H](CO)NC(=O)[C@H](CCCNC(=N)N)N(C)C(=O)c3ccccc3CSC2(C)C)C(=O)N[C@@H](CCC(=O)O)CC(N)=O)cc1 [compound 132] ([NMeR]SDTL[Pen][Phe(4-Me)][β3hE]-NH2; linker N-6 via X1)
[out] > 3 h

[in] For the compound CC(C)C[C@@H]1NC(=O)[C@H]([C@@H](C)O)NC(=O)[C@H](CC(=O)O)NC(=O)[C@H](CO)NC(=O)[C@H](CCCNC(=N)N)N(C)C(=O)c2ccccc2CSC(C)(C)[C@@H](C(=O)N[C@@H](Cc2c[nH]c3ccccc23)C(=O)N[C@H](CCC(=O)O)C(=O)N[C@@H](CCN)C(N)=O)NC1=O [compound 95] (HELM PEPTIDE1{[meR].S.D.T.L.[Pen].W.[dE].[Dab].[am]}|CHEM1{[O=C(c1ccccc1C[*:2])[*:1]]}$PEPTIDE1,CHEM1,1:R1-1:R1|PEPTIDE1,CHEM1,6:R3-1:R2$$$V2.0) , give its measured half-life value.
[out] > 3 h

[in] Find the measured half-life of Cc1ccccc1C[C@H](NC(=O)[C@H]1NC(=O)[C@H](CC(C)C)NC(=O)[C@H]([C@@H](C)O)NC(=O)[C@H](CC(=O)O)NC(=O)[C@H](CO)NC(=O)[C@H](CCCNC(=N)N)N(C)C(=O)c2ccccc2CSC1(C)C)C(=O)N[C@@H](CCC(=O)O)CC(N)=O [compound 126] ([NMeR]SDTL[Pen][Phe(2-Me)][β3hE]-NH2; linker N-6 via X1) and report it.
[out] > 3 h

[in] Give the value of half-life reported for the following: CC(C)C[C@@H]1NC(=O)[C@H]([C@@H](C)O)NC(=O)[C@H](CC(=O)O)NC(=O)[C@H](CO)NC(=O)[C@H](CCCNC(=N)N)N(C)C(=O)CCSCC[C@@H](C(=O)N[C@@H](Cc2c[nH]c3ccccc23)C(=O)N[C@H](CCCCN)C(N)=O)NC1=O [compound 57]
[out] < 0.333 h

[in] For the compound CC(C)C[C@@H]1NC(=O)[C@H]([C@@H](C)O)NC(=O)[C@H](CC(=O)O)NC(=O)[C@H](CO)NC(=O)[C@H](CCCNC(=N)N)N(C)C(=O)c2ccccc2CSC[C@H](C(=O)N[C@@H](Cc2c[nH]c3ccccc23)C(=O)N[C@@H](CCC(=O)O)CC(=O)N[C@H](CCCCN)C(N)=O)NC1=O [compound 66] (HELM PEPTIDE1{[meR].S.D.T.L.[dC].W.[O=C(O)CC[C@@H](CC(=O)[*:2])N[*:1]].[dK].[am]}|CHEM1{[O=C(c1ccccc1C[*:2])[*:1]]}$PEPTIDE1,CHEM1,1:R1-1:R1|PEPTIDE1,CHEM1,6:R3-1:R2$$$V2.0) , report half-life.
[out] > 3 h

[in] Please give measured half-life of the following entry: Cc1cccc(C[C@H](NC(=O)[C@H]2NC(=O)[C@H](CC(C)C)NC(=O)[C@H]([C@@H](C)O)NC(=O)[C@H](CC(=O)O)NC(=O)[C@H](CO)NC(=O)[C@H](CCCNC(=N)N)N(C)C(=O)c3ccccc3CSC2(C)C)C(=O)N[C@@H](CCC(=O)O)CC(N)=O)c1 [compound 125] ([NMeR]SDTL[Pen][Phe(3-Me)][β3hE]-NH2; linker N-6 via X1)
[out] > 3 h
